measured.metric: melting point

Please review the entries below; each comes with its answer.
Nc1nccc(-c2ccccc2)n1; 162 to 164 °C
CC(C)(C(=O)O)S(=O)(=O)c1ccc(Br)cc1; 162 to 164 °C

Each molecule below has a recorded value; state its melting point.
1. Cn1c(Cl)nc2c1c(=O)[nH]c(=O)n2C
2. Brc1ccc(-n2cccn2)cc1

299 to 301 °C
69 to 71 °C

====

Please provide measured melting point for the entries that follow.

NC(=O)c1ccc(S(N)(=O)=O)c(N)c1; 202 to 204 °C
O=C(O)Cc1ccc(NC(=O)c2cccc(Br)c2)cc1; 246 to 248 °C
O=c1cc[nH]c2ccc(Br)cc12; 286 to 288 °C
CC(Cl)C(=O)Nc1cccc(CSc2ccccn2)c1 (stereo not drawn); 97 to 99 °C
Cc1ccc(-c2nc(N)sc2-c2ccc(C)cc2)cc1; 153 to 155 °C
CC(C(=O)OCc1ccccc1)S(N)(=O)=O (stereo not drawn); 83 to 85 °C

Each molecule below has a recorded value; state its melting point.
1. CCN(CC)S(=O)(=O)c1ccc(N)cc1
2. Brc1ccc(Cn2cccn2)cc1

99 to 101 °C
43 to 45 °C
